assay: Solubility estimation at RT by visual observation in solvent systems; assay type: physicochemical; settings: organic solvent or mixture, thermodynamic from solid; estimated, visual observation; MeOH, THF (50° C.)
Assay Readout: solubility

{"Compound": "CNC(=O)c1ccc(N2CCN(Cc3cnc4cc(C5CC5)c(=O)[nH]c4c3)CC2)cn1 [Starting material]", "Assay Readout": "solubility", "Recorded Measurement": "1000 to 5000 µg/mL"}

----------
assay: Solubility in bio-relevant media, water and pH buffers (HPLC of filtrate, XRPD of filter cake); type: physicochemical; conditions: pH 5.0 buffer, 37 °C, pH 5, aqueous buffer, thermodynamic from solid, pH 5.0 buffer, initial pH 4.94, 37° C., 800 rpm, 2 h; read-out: Solubility (mg/mL) 2 h

{"Compound": "CNC(=O)c1ccc(N2CCN(Cc3cnc4cc(C5CC5)c(=O)[nH]c4c3)CC2)cn1 [Freebase Form II]", "solubility at 2 h / mg/mL": 0.05}
